What follows is literature data on pKi for UniProtKB P29275.
Sequence (P29275 whole entry): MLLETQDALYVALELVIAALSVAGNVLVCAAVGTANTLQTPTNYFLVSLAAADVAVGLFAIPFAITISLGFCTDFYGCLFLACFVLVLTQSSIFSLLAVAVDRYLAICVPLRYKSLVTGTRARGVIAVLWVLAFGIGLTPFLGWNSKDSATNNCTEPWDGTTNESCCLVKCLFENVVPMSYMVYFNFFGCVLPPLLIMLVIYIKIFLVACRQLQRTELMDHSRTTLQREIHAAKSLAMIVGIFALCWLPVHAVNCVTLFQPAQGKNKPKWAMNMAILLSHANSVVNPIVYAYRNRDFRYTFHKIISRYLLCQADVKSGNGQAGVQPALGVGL
pKi is a log-scale quantity: -log10 of the concentration expressed in molar.

What value of pKi has been recorded for this entry: Cn1c(=O)c2[nH]c(-c3ccccc3)c(O)c2n(C)c1=O
6.54

What value of pKi has been recorded for this entry: CCN(CC)c1nc2ccccc2n2nc(-c3ccco3)nc12
5.62

What value of pKi has been recorded for this entry: COc1ccc(N(C)C(C)=O)c2sc(NC(=O)c3ccc(F)cc3)nc12
7.66

What value of pKi has been recorded for this entry: CCOC(=O)C1=C(C)N=C(S)NC1c1ccsc1 (racemic)
5.96

What value of pKi has been recorded for this entry: Cn1c(=O)c2[nH]c(-c3ccccc3)cc2n(C)c1=O
6.74

What value of pKi has been recorded for this entry: CCn1c(=O)c2c(nc(Cc3cccs3)n2C)n(Cc2ccco2)c1=O
8.13

What value of pKi has been recorded for this entry: CCCn1c(=O)c2nc(-c3cnn(Cc4noc(-c5ccc(Cl)cc5)n4)c3)[nH]c2n(CCC)c1=O
7.41

What value of pKi has been recorded for this entry: CCCn1c(=O)c2nc([C@]34CC[C@](C(=O)N(C)CC(=O)OC)(CC3)CC4)[nH]c2n(CCC)c1=O
6.53

What value of pKi has been recorded for this entry: COc1cc(OCC(=O)NCc2ccc(Cl)cc2)ccc1-c1cc2c([nH]1)c(=O)n(C)c(=O)n2C
6.91

What value of pKi has been recorded for this entry: CCCn1c(=O)c2[nH]c(-c3ccc(OCC(=O)Nc4ccc(Br)cc4)cc3)c(Cl)c2n(CCC)c1=O
7.61

What value of pKi has been recorded for this entry: Nc1ccccc1NC(=O)c1ccc(CCn2ncc3c2nc(N)n2nc(-c4ccco4)nc32)cc1
6.46

What value of pKi has been recorded for this entry: CCn1c(=O)c2[nH]c(-c3ccc(OCC(=O)O)cc3)cc2n(CCCOC)c1=O
7.14

What value of pKi has been recorded for this entry: CCOC(=O)C1=C(C)Nc2nc3ccccc3n2C1c1ccc[nH]1 (racemic)
7.30

What value of pKi has been recorded for this entry: Cn1c(=O)c2c(cc(-c3ccccc3)n2O)n(C)c1=O
5.78

What value of pKi has been recorded for this entry: CCn1c(=O)c2c(nc(Cc3ccco3)n2C)n(Cc2ccco2)c1=O
7.86

What value of pKi has been recorded for this entry: Nc1cccc(CNC(=O)c2cc(-c3ccco3)nc(N)n2)n1
6.35

What value of pKi has been recorded for this entry: Cn1c(=O)c2[nH]c(-c3ccc(OCC(=O)Nc4nc5ccccc5[nH]4)cc3)cc2n(C)c1=O
7.70

What value of pKi has been recorded for this entry: CCCn1c(=O)c2nc(-c3cnn(Cc4nc(-c5ccccc5C(F)(F)F)no4)c3)[nH]c2n(CCC)c1=O
7.13

What value of pKi has been recorded for this entry: CCn1c(=O)c2[nH]c(-c3ccc(OCC(=O)Nc4ccc(Br)cc4)cc3)nc2n(CCCOC)c1=O
8.54

What value of pKi has been recorded for this entry: CCCn1c(=O)[nH]c2[nH]c(-c3ccc(S(=O)(=O)Oc4cccc([N+](=O)[O-])c4)cc3)nc2c1=O
7.89

What value of pKi has been recorded for this entry: CCCn1c(=O)c2[nH]c(-c3ccc(OC(CC)C(=O)Nc4ccc(F)cc4)cc3)cc2n(CCC)c1=O (stereo not given)
8.32

What value of pKi has been recorded for this entry: CC1=C(C(=O)OC(C)C)C(c2ccoc2)N/C(=N/C#N)N1 (racemic)
7.23

What value of pKi has been recorded for this entry: Cn1c(=O)c2nc(-c3cnn(Cc4cccc(C(F)(F)F)c4)c3)[nH]c2n(C)c1=O
9.00

What value of pKi has been recorded for this entry: Cc1ccc(CNC(=O)c2cc(-c3ccco3)nc(N)n2)cc1
5.91

What value of pKi has been recorded for this entry: CCOC(=O)C1=C(C)Nc2nc3ccccc3n2C1c1ncc[nH]1 (racemic)
6.40

What value of pKi has been recorded for this entry: C=CCn1c(=O)c2c(nc(-c3ccccc3)n2CCCl)n(C)c1=O
6.51

What value of pKi has been recorded for this entry: C#CCn1c(=O)[nH]c2[nH]cnc2c1=O
6.26

What value of pKi has been recorded for this entry: COc1cccc2cc(C(=O)NCCCCCO)c(=N)oc12
5.90

What value of pKi has been recorded for this entry: CCCCn1c(=O)[nH]c2nc(-c3ccccc3)[nH]c2c1=O
7.93

What value of pKi has been recorded for this entry: CCC(=O)Nc1nc(-c2ccccc2F)cc(-c2ccccc2F)n1
6.51

What value of pKi has been recorded for this entry: CCn1c(=O)c2[nH]c(-c3ccc(OCC(=O)Nc4ccccc4)cc3)cc2n(CC)c1=O
8.11

What value of pKi has been recorded for this entry: O=C(Cc1ccccc1)Nc1nc2nn(CCc3ccccc3)cc2c2nc(-c3ccco3)nn12
7.46

What value of pKi has been recorded for this entry: CCCn1c(=O)c2nc(-c3cnn(Cc4noc(-c5ccccc5OC)n4)c3)[nH]c2n(CCC)c1=O
7.08

What value of pKi has been recorded for this entry: CCN(Cc1ccccc1)C(=O)COc1ccc(-c2cc3c([nH]2)c(=O)n(C)c(=O)n3C)cc1
7.37

What value of pKi has been recorded for this entry: O=C(Nc1ccc(O)c(O)c1)c1coc2ccccc2c1=O
5.87

What value of pKi has been recorded for this entry: c1coc(CNc2nc3ccccc3n3nc(-c4ccco4)nc23)c1
5.76

What value of pKi has been recorded for this entry: CCCn1c(=O)c2[nH]c(-c3ccc(OCC(=O)O)cc3)c(Br)c2n(CCC)c1=O
7.10
